# system-tested: Melanin-concentrating hormone receptor 1 (Homo sapiens) (UniProt Q99705)
# measurement-protocol: MCH receptor 1 blockade in cells – cell-based, fluorescence, dose response, set 3, selectivity assay for GPR7 antagonist project, late-stage follow-up (AID 540371)
# test-settings: MCHR1-expressing cells, run 3
Calls of active or inactive are those of the source. The rule behind the calls is not given here.
Please reply with one of these outcomes: active, inactive

Enquiry: Dear all, I need the recorded test outcome for COc1ccc(Oc2c(Cl)cnn(Cc3cccc4ccccc34)c2=O)cc1 , thank you.
Return: active

Enquiry: Write down the call the test reported for this compound. Item: COc1ccc(Oc2c(Cl)c(C#N)nn(Cc3ccccc3C)c2=O)cc1
Return: active

Enquiry: What outcome does the record of this test show for O=c1c(Oc2ccc3c(c2)CCO3)c(Cl)cnn1Cc1cccc2ccccc12 ?
Return: inactive

Enquiry: Outcome? CCc1ccc(Oc2c(Cl)cnn(Cc3cccc4ccccc34)c2=O)cc1
Return: active

Enquiry: What call does the record list for CCOc1ccc(Oc2c(S(C)=O)cnn(Cc3cccc4ccccc34)c2=O)cc1 (configuration not stated) ?
Return: inactive

Enquiry: What was the test verdict on COc1ccc(Oc2c(Cl)cnn(Cc3cc(C)cc(C)c3)c2=O)cc1 ?
Return: active

Enquiry: Hi team, can someone confirm the assay call for COc1ccc(Oc2c(Cl)cnn(CC(=O)C(c3ccccc3)c3ccccc3)c2=O)cc1 ?
Return: active

Enquiry: Please state the recorded outcome for this compound: C=Cc1nn(Cc2ccccc2C)c(=O)c(Oc2ccc(OC)cc2)c1C=C
Return: active

Enquiry: Hi team, can someone confirm the assay call for COc1ccc(Oc2c(Cl)cnn(Cc3ccccc3-c3ccccc3)c2=O)cc1 ?
Return: active

Enquiry: Given COc1ccc(Oc2c(Cl)cnn(Cc3ccccc3)c2=O)cc1 , state the outcome it received in this test.
Return: inactive

Enquiry: For COc1ccc(Oc2c(Cl)cnn(Cc3c4ccccc4cc4ccccc34)c2=O)cc1 , what call appears in the results of this test?
Return: inactive

Enquiry: Field: outcome | Entry: CCCOc1ccc(Oc2c(Cl)cnn(Cc3cccc4ccccc34)c2=O)cc1
Return: inactive

Enquiry: What did the test return for CCCOc1ccc(Oc2c(Cl)cnn(C3c4ccccc4-c4ccccc43)c2=O)cc1 ?
Return: inactive

Enquiry: Just curious, what result did CCOc1ccc(Oc2c(Cl)c(Br)nn(Cc3cccc4ccccc34)c2=O)cc1 get here?
Return: inactive

Enquiry: Answer briefly: the call reported for COc1ccc(Nc2c(Cl)cnn(Cc3cccc4ccccc34)c2=O)cc1 in this assay.
Return: inactive

Enquiry: Can you look up the reported call for COc1ccc(Oc2c(Cl)cnn(Cc3c(C)ccc4ccccc34)c2=O)cc1 for me?
Return: active

Enquiry: Please indicate how the test categorized COc1ccc(Oc2c(Cl)cnn(Cc3ccc4ccccc4c3)c2=O)cc1 .
Return: inactive

Enquiry: Give the logged outcome of this assay for the following compound: COc1ccc(Sc2c(Cl)cnn(Cc3cccc4ccccc34)c2=O)cc1
Return: inactive

Enquiry: Assay result, entry CCOc1ccc(Oc2c(Cl)cnn(Cc3cccc4ccccc34)c2=O)cc1 — outcome?
Return: active

Enquiry: Call for entry COc1ccc(Oc2c(Cl)cnn(Cc3cccc4cnccc34)c2=O)cc1 :
Return: active

Enquiry: Test call for this compound, please: COc1ccc(Oc2c(C#N)cnn(Cc3cccc4ccccc34)c2=O)cc1
Return: active

Enquiry: Record lookup: outcome of this test for COc1ccc(Oc2c(Cl)cnn(Cc3ccccc3C(F)(F)F)c2=O)cc1 ?
Return: active

Data origin, for the record: PubChem BioAssay AID540371
